Source: patent US20240317727A1

molecular target: recombinant HSF1 DNA-binding domain (DBD) (Homo sapiens, UniProt Q00613); assay: Differential Scanning Fluorimetry (DSF), HSF1 DBD melting temperature; conditions: Table 1; 5 μM HSF1 DBD, 25PM Compound; positive = stabilizes, negative = destabilizes HSF1
Sequence (Q00613 15-120): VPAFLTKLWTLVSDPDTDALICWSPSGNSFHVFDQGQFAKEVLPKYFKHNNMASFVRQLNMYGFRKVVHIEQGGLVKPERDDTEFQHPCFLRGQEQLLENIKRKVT
Reported values of ΔTm at 25 µM for individual entries
Please give a number only; it is taken to be in °C.

Some molecules with known ΔTm at 25 µM results, for comparison:
O=[N+]([O-])c1cc(C(F)(F)F)cc([N+](=O)[O-])c1Oc1ccc(C2CCCCC2)cc1 :: -6.23
CCOC(=O)c1sc(Sc2ccc([N+](=O)[O-])cc2[N+](=O)[O-])nc1C :: -4.19
O=C(Nc1ccc(F)cc1)Nc1ccc(Cl)c(S(=O)(=O)C(F)(F)F)c1 :: 2.9
O=C(Nc1cccc(Cl)c1)Nc1cccc([N+](=O)[O-])c1 :: 2.25
COC(=O)c1cc(C#N)c(Sc2c([N+](=O)[O-])cc(C(F)(F)F)cc2[N+](=O)[O-])nc1C(OC)OC :: -7.4

Record request: ΔTm at 25 µM value, item COc1cc2cc(N(C)CCCNC(=O)C3CCCO3)cc(N)c2cc1OC (stereo not shown)
-3.02

Returns the measured ΔTm at 25 µM for the input molecule. Input: O=C(Nc1ccc(Cl)c([N+](=O)[O-])c1)Nc1ccc(F)cc1C1(C(F)(F)F)N=N1
2.25
